B1: SMOC2 (parent)
chain: DCAGSPQKPLCASDGRTFLSRCEF

- Variants of: B1
- assay.comment: protein stability index of a GFP-peptide fusion (GPS, HEK-293T) (PSI 1-6); higher = more stable;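 further: lentivirally expressed fusions sorted by FACS into six bins by GFP to DsRed ratio, PSI derived from sequencing read proportions per bin multiplied by bin number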
- condition.details: c terminus: a fixed tail appended
metric.name: protein stability index

DCAGSPQKPLCASDGRTFLCRCEF :: 2.86

Problem: Please report the recorded protein stability index for DCAGSPQKPLCESDGRTFLSRCEF .
Solution: 3.96

Problem: Try DCAGSPNKPLCASDGRTFLSRCEF next.
Solution: 1.96

Problem: Same thing, different variant: DCAGSPQKPLCASDGRTFLSRTEF
Solution: 3.29

Taken from the supplement of paper PMC10567573.
